- assay.target: furin, P09958;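 note: purified furin at 1:10 enzyme:substrate in 50 mM HEPES pH 7.5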
- Sequence (P09958 whole entry): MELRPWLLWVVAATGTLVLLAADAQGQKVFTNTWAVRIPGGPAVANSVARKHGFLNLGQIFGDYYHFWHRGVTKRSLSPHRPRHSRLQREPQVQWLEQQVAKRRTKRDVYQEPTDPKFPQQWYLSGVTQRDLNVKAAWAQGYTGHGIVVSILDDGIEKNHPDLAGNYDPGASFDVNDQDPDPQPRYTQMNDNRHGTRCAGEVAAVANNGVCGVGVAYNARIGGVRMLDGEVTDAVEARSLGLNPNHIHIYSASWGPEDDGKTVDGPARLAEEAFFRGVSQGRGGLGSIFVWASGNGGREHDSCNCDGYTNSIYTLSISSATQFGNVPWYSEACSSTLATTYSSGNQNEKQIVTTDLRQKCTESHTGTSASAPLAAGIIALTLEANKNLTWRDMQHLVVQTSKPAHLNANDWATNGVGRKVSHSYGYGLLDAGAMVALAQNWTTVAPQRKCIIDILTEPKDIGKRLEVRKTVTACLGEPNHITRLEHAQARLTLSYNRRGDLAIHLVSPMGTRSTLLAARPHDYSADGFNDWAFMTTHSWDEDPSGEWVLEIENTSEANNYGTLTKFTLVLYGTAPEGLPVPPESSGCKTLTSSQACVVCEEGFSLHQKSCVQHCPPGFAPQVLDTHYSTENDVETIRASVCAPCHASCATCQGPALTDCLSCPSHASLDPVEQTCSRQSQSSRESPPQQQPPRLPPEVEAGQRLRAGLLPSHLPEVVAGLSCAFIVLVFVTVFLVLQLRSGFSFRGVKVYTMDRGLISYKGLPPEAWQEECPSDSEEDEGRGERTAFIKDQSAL
- assay.details: furin cleavage Z-score vs untreated control; higher = more cleavage, active = 3.5 or more, inactive = 1 or less, 8 variable residues between constant flanks
- assay.conditions: 15 min
The other results are listed elsewhere or left out. The hit rate among all sequences tested is not known here.
API: response.call in 1 for active, -1 for inactive

Ask: Test call for this sequence, please: CAQCTTPCSGAGNASASA [HC1962]
Result: -1

Ask: Test call for this sequence, please: CALEKRQKRDAGNASASA [FS-1639]
Result: 1

Ask: Test call for this sequence, please: CAGLVPRGSAAGNASASA [TR1]
Result: -1

Ask: Test call for this sequence, please: CATHPCSGSWAGNASASA [HC1855]
Result: -1

Ask: Test call for this sequence, please: CATSTWVLVGAGNASASA [HC989]
Result: -1

Ask: Test call for this sequence, please: CAGLGKVLIDAGNASASA [HC1082]
Result: -1

Ask: Test call for this sequence, please: CALEKRSVGCAGNASASA [FS-2391]
Result: -1

Ask: Test call for this sequence, please: CANPARVCRDAGNASASA [FS-278]
Result: 1

Ask: Test call for this sequence, please: CAQESQKKRSAGNASASA [FS-1474]
Result: -1

Ask: Test call for this sequence, please: CANDSRHLRNAGNASASA [FS-1647]
Result: -1

Ask: Test call for this sequence, please: CALARRSRRGAGNASASA [FS-816]
Result: 1

Ask: Test call for this sequence, please: CAELGRPARDAGNASASA [FS-926]
Result: -1

Ask: Test call for this sequence, please: CAEEEVPCHRAGNASASA [HC2452]
Result: -1

Ask: Test call for this sequence, please: CAPANRSRRGAGNASASA [FS-67]
Result: 1

Ask: Test call for this sequence, please: CAMSARRARDAGNASASA [FS-463]
Result: 1
